Data credit: the DeepSol protein solubility set

- assaySummary: soluble on expression in E. coli; label from the status in PepcDB or PDB records
quantityName: soluble on expression in E. coli

sequenceentry=AHHHHHHGSLKLSDFIPLTMLREGETGVVVDIQSGVNARGKLLSMGITPGVRVRMIKSRKPGPVIIGIGSSKIALGWGIASKIIVRRE observedvalue="not soluble"
sequenceentry=MGSDKIHHHHHHMSPDVYLQIFETRRPQLLRLAYRMLGSHAEAEDVVQEAWIRWQAADQAQIAIPAAWLNRVVSRLCLDLMRSARHRRESYIGPWLPEPLIEEEDADHRPDNLTLSLMMALERLSPLERAAFLLHDVFGQSFDEVALALDRSPSAARQLAVRARAHVHIDRPRYKVEREAAEGLTRAFFEACKTGDAAVLSGLLAEDAVLHSDGGGKVYNLLNVIVGAQKLLRMFTSLSRKRGDEMEFVQFTLIDALPGYVWRMGDQIQTTALEVEDGRITRVYTTRNPDKLTRIRLN observedvalue="not soluble"
